Reference source: ChEMBL document CHEMBL5674875

# System: TPC1
# Assay Details: Anti-proliferative activity against human TPC1 cells assessed as reduction in cell proliferation incubated for 72 hrs
# Format: functional, cell-based
# Measurement Parameters: TPC1, 72 h
pIC50: −log10 of the molar value.
Property Name: pIC50

INSERT INTO assay_data (smiles_structure, reading) VALUES
  ('Cc1sc2c(c1C)C(c1ccc(Cl)cc1)=N[C@@H](CC(=O)OC(C)(C)C)c1nnc(C)n1-2', 6.34);

* * *

# Test system: BCPAP
# Assay Details: Anti-proliferative activity against human BCPAP cells assessed as reduction in cell proliferation incubated for 72 hrs
# Format: functional, cell-based
Property Name: IC50

INSERT INTO assay_data (smiles_structure, assayed_system, property_name, reading) VALUES
  ('Cc1sc2c(c1C)C(c1ccc(Cl)cc1)=N[C@@H](CC(=O)OC(C)(C)C)c1nnc(C)n1-2', 'BCPAP', 'IC50', '254 nM');
